Molecular target: human P2X3 receptor (Homo sapiens (Human))
Assay: Evaluation of human P2X3 receptor inhibitory activity (Fluo-3 calcium fluorescence, FDSS 3000, ATP stimulation)
Type: cell-based
Conditions: C6BU-1 cells stably expressing human P2X3 receptor, Fluo-3 fluorescence, FDSS 3000
Assign labels as follows, please: criterion met for IC50 below 20 nM; criterion not met for IC50 equal to or exceeding 20 nM.

Here are 2 compounds together with their reported answers.
Cc1cc(/N=c2\[nH]c(=O)n(CC3CN(C(=O)OC(C)(C)C)C3)c(=O)n2Cc2ccc(Cl)cc2)ccc1OC(C)C | criterion met
O=c1[nH]/c(=N\c2ccc(Oc3cncc(F)c3)cc2)n(Cc2ccc(Cl)cc2)c(=O)n1CCCO | criterion met

-- ask Is 20 nM strictly greater than the compound's reported IC50? compound: "Cc1ccc(Cn2c(=O)n(CCC(=O)O)c(=O)[nH]/c2=N\c2ccc(OCC(C)(C)C)cc2)cc1"
-- reply criterion not met

-- ask Is 20 nM strictly greater than the compound's reported IC50? compound: "CCc1oc2ccc(/N=c3\[nH]c(=O)n(CCCNC(C)=O)c(=O)n3Cc3ccc(Cl)cc3)cc2c1C"
-- reply criterion met

-- ask Is 20 nM strictly greater than the compound's reported IC50? compound: "Cc1nc2ccc(/N=c3\[nH]c(=O)n(C[C@H]4COC(C)(C)O4)c(=O)n3Cc3ccc(Cl)cc3)cc2s1"
-- reply criterion met

-- ask Is 20 nM strictly greater than the compound's reported IC50? compound: "CCC[C@H](C)Oc1ccc(/N=c2\[nH]c(=O)n(C[C@H](C)C(=O)OC)c(=O)n2Cc2ccc(C)cc2)cc1"
-- reply criterion not met

-- ask Is 20 nM strictly greater than the compound's reported IC50? compound: "Cc1cc(/N=c2\[nH]c(=O)n(C[C@H](C)C(=O)O)c(=O)n2Cc2ccc(Cl)cc2)ccc1C#CC1CC1"
-- reply criterion not met

-- ask Is 20 nM strictly greater than the compound's reported IC50? compound: "Cc1ccc(Cn2c(=O)n(CCC(=O)O)c(=O)[nH]/c2=N\c2ccc(OC(C)C)c(Br)c2)cc1"
-- reply criterion met

-- ask Is 20 nM strictly greater than the compound's reported IC50? compound: "Cc1ccc(Cn2c(=O)n(CC3(CC(=O)O)CC3)c(=O)[nH]/c2=N\c2ccc(OC(C)C)c(Cl)c2)cc1"
-- reply criterion met

====

Target: human P2X3 receptor (Homo sapiens (Human), UniProt P56373)
Sequence (P56373 whole entry): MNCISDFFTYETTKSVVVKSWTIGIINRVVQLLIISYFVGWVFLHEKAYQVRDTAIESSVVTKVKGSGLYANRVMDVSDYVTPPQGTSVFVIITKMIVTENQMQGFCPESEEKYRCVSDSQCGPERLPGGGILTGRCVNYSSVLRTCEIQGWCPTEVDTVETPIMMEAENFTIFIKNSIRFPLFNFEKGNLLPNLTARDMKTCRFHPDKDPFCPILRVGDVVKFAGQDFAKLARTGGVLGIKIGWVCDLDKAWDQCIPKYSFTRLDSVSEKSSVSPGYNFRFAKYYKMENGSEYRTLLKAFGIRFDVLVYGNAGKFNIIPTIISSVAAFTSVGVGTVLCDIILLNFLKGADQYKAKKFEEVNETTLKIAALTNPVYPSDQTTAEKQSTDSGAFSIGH
Assay: Evaluation of human P2X3 receptor inhibitory activity (Fluo-3 calcium fluorescence, FDSS 3000, ATP stimulation)
Format: cell-based
Details: human P2X3 receptor, Test Example 1
REPORTED_METRIC: IC50 (nM)
Give the quantity in nM, number only.

Cn1c(=O)[nH]/c(=N\c2ccc(Oc3cccc(C(=O)O)n3)cc2)n(C[C@H]2CC[C@H](C)CC2)c1=O [Compound I-2465] | 4

-- ask Reported IC50, molecule COc1cccc(Oc2ccc(/N=c3\[nH]c(=O)n(CC(CO)CO)c(=O)n3Cc3ccc(Cl)cc3)cc2)n1 [Compound I-2641] : ____
-- reply 12

-- ask Reported IC50, molecule CCn1c(=O)[nH]/c(=N\c2ccc(Oc3ccnc(C#N)n3)cc2)n(Cc2ccc(Cl)cc2)c1=O [Compound I-2310] : ____
-- reply 5

-- ask Reported IC50, molecule CCn1c(=O)[nH]/c(=N\c2ccc(Oc3cncc(C#N)c3)cc2)n(Cc2ccc(Cl)cn2)c1=O [Compound I-2318] : ____
-- reply 18

====

Item-by-item account of IC50
Target: human P2X3 receptor (Homo sapiens (Human), UniProt P56373)
Experiment: Evaluation of human P2X3 receptor inhibitory activity (Fluo-3 calcium fluorescence, FDSS 3000, ATP stimulation)
Type: cell-based
Details: C6BU-1 cells stably expressing human P2X3 receptor
Give the quantity in nM, number only.

-- ask Param readout = IC50; param system = human P2X3 receptor (Homo sapiens (Human), UniProt P56373); param query = "Cc1cc(/N=c2\[nH]c(=O)n(CC[C@H](N)C(=O)O)c(=O)n2Cc2ccc(Cl)cc2)ccc1OC(C)C" ; response: value
-- reply 131

-- ask Param readout = IC50; param system = human P2X3 receptor (Homo sapiens (Human), UniProt P56373); param query = "CCOC(=O)CCn1c(=O)[nH]/c(=N\c2ccc3[nH]c(C)c(C)c3c2)n(Cc2ccc(Cl)cc2)c1=O" ; response: value
-- reply 9

-- ask Param readout = IC50; param system = human P2X3 receptor (Homo sapiens (Human), UniProt P56373); param query = "O=C(O)CCn1c(=O)[nH]/c(=N\c2ccc(Oc3cccnc3)cc2)n(Cc2ccc(Cl)cc2)c1=O" ; response: value
-- reply 43

-- ask Param readout = IC50; param system = human P2X3 receptor (Homo sapiens (Human), UniProt P56373); param query = "COC(=O)[C@@H](C)Cn1c(=O)[nH]/c(=N\c2ccc(OC(F)F)c(F)c2)n(Cc2ccc(Cl)cc2)c1=O" ; response: value
-- reply 67

====

Target: human P2X3 receptor (Homo sapiens (Human), UniProt P56373)
Assay: Evaluation of human P2X3 receptor inhibitory activity (Fluo-3 calcium fluorescence, FDSS 3000, ATP stimulation)
Type: cell-based
Details: C6BU-1 cells stably expressing human P2X3 receptor
Assign labels as follows, please: Yes for IC50 below 40 nM; No for IC50 equal to or exceeding 40 nM.

Here are 6 compounds together with their reported answers.
CCOC(=O)C1CCC(n2c(=O)[nH]/c(=N\c3ccc(OC(C)C)c(C)c3)n(Cc3ccc(Cl)cc3)c2=O)CC1 (centres unmarked) | No
CCCc1ccc(/N=c2\[nH]c(=O)n(C[C@H](C)C(=O)OC)c(=O)n2Cc2ccc(Cl)cc2)cc1 | No
CC(C)Oc1ccc(/N=c2\[nH]c(OCC(=O)NN(C)C)nc(=O)n2Cc2ccc(Cl)cc2)cc1F | Yes
CCCc1ccc(/N=c2\[nH]c(=O)n(C[C@H](C)C(=O)O)c(=O)n2Cc2ccc(C)cc2)cc1Cl | Yes
O=c1ccccn1-c1ccc(/N=c2\[nH]c(=O)n(CCO)c(=O)n2Cc2ccc(Cl)cc2)cc1 | No
C[C@@H](C(=O)O)[C@H](C)n1c(=O)[nH]/c(=N\c2ccc(OC3CCC3)cc2)n(Cc2ccc(Cl)cc2)c1=O | Yes

-- ask Is 40 nM strictly greater than the compound's reported IC50? compound: "Cc1cc2cc(/N=c3\[nH]c(=O)n(CC4COC(C)(C)OC4)c(=O)n3Cc3ccc(Cl)cc3)ccc2o1"
-- reply Yes

-- ask Is 40 nM strictly greater than the compound's reported IC50? compound: "CCn1c(=O)[nH]/c(=N\c2ccc(Oc3cccc(C(=O)OC)n3)cc2)n(Cc2ccc(Cl)cc2)c1=O"
-- reply Yes

-- ask Is 40 nM strictly greater than the compound's reported IC50? compound: CC1CCC(Cn2c(=O)n(CCC(N)=O)c(=O)[nH]/c2=N\c2ccc(OC(C)C)c(Cl)c2)CC1 (centres unmarked)
-- reply Yes

====

Item-by-item account of pIC50
Target: human P2X3 receptor (Homo sapiens (Human), UniProt P56373)
Assay: Evaluation of human P2X3 receptor inhibitory activity (Fluo-3 calcium fluorescence, FDSS 3000, ATP stimulation);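 note: stimulus was 50 nM ATP with fluorescence followed for 3 min, and the response per well was peak post-ATP fluorescence divided by the reading at measurement start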
Assay type: cell-based
Conditions: C6BU-1 cells stably expressing human P2X3 receptor, Fluo-3 fluorescence, FDSS 3000
Conceptually, pIC50 converts a concentration in mol/L into minus its log10.

Recorded results for 4 molecules are shown here.
COC(=O)Cn1c(=O)[nH]/c(=N\c2ccc(Oc3ccnc(C)c3)cc2)n(Cc2ccc(Cl)cc2)c1=O | 8.30
Cc1nc2ccc(/N=c3\[nH]c(=O)n(CC(N)=O)c(=O)n3Cc3ccc(Cl)cc3)cc2s1 | 8.22
CC[C@@H](C)Oc1ccc(/N=c2\[nH]c(=O)n(CCC(=O)O)c(=O)n2Cc2ccc(C)cc2)cc1Cl | 7.85
CCn1c(=O)[nH]/c(=N\c2ccc(Oc3ccc(C(N)=O)cc3)cc2)n(Cc2ccc(Cl)cc2)c1=O | 8.40

-- ask Reported pIC50, molecule "C[C@@H](C(=O)O)[C@H](C)n1c(=O)[nH]/c(=N\c2ccc3c(c2)CCO3)n(Cc2ccc(Cl)cc2)c1=O" : ____
-- reply 6.24

-- ask Reported pIC50, molecule "Cc1ccc(Cn2c(=O)n(C[C@H](C)C(=O)O)c(=O)[nH]/c2=N\c2ccc(N3CCCC3)cc2)cc1" : ____
-- reply 6.75

-- ask Reported pIC50, molecule "COC(=O)[C@@H](C)Cn1c(=O)[nH]/c(=N\c2cccc(Br)c2)n(Cc2ccc(C)cc2)c1=O" : ____
-- reply 7.19

====

Observed pIC50 for CYP1A2 (Homo sapiens (Human)), reported per entry below.
pIC50: −log10 of the molar value.

O=c1[nH]/c(=N\c2ccc(Oc3ccon3)cc2)n(Cc2ccc(Cl)cc2)c(=O)n1CC(CO)CO | < 4.70
C[C@@H](Cn1c(=O)[nH]/c(=N\c2ccc(OCC3CC3)cc2)n(Cc2ccc(Cl)cc2)c1=O)C(=O)O | < 4.70

-- ask Reported pIC50, compound "CCn1c(=O)[nH]/c(=N\c2ccc(Oc3ccnc(C(=O)O)c3)cc2)n(Cc2ccc(Cl)cc2)c1=O" : ____
-- reply < 4.70
